Record form. Attribute: Median IC50 against viruses neutralized with an IC50 <50 µg/ml. Fill in for each entry.
molecular target: Env of the clade B HIV-1 pseudoviruses of the cross-clade 162-pseudovirus panel (n = 31); assay: cell-based or functional assay
One number for each entry, in µg/mL.

Reference set, count: 2
- BINDER: "PGT-125 (antibody, V domains shown) VH: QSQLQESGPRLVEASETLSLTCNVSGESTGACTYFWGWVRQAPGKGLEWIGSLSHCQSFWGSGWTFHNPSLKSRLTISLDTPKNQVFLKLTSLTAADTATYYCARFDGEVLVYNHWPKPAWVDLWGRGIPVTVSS VL: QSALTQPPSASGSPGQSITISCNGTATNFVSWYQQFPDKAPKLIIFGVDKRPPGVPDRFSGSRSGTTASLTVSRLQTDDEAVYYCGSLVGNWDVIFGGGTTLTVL"
  UNITS: "µg/mL"
  EXPERIMENTAL_VALUE: 0.02
- BINDER: "PGT-131 (antibody, V domains shown) VH: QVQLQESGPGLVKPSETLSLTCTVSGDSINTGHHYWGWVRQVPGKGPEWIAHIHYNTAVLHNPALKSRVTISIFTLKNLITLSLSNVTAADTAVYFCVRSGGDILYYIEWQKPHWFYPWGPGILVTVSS VL: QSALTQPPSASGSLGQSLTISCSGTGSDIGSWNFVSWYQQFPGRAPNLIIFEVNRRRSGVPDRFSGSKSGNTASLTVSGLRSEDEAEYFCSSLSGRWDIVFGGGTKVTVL"
  UNITS: "µg/mL"
  EXPERIMENTAL_VALUE: 0.07

Q: Which Median IC50 against viruses neutralized with an IC50 <50 µg/ml is reported for this binder? PGT-136 (antibody, V domains shown) VH: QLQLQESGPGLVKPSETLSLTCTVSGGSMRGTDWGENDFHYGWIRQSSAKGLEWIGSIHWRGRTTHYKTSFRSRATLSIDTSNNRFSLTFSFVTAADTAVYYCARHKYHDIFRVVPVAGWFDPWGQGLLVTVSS VL: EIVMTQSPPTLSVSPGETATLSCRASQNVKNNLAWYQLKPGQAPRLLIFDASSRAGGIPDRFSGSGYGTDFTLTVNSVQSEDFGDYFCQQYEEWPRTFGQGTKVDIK
Ans: 13.2
